For each record, write down the corresponding viability, T/C.
Test system: 349418-098-R-PDC complex spheroid viability;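 also: spheroids exposed to compound for seven days before viability readout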
Test: Anticancer human tumor 349418-098-R-PDC patient-derived lung adenocarcinoma cell line growth inhibition [RAS]
Settings: second compound 0.000949 µM; first compound 0.316 µM; active compounds read low
One number for each entry, in %.

In the examples that follow, each entry is paired with its recorded viability, T/C.
What does the record list as viability, T/C for CC(C)NCC(C(=O)N1CCN(c2ncnc3c2C(C)CC3O)CC1)c1ccc(Cl)cc1 (stereo not given) + CCn1c(-c2cc(N3CCN(C)CC3)cnc2C(C)OC)c2c3cc(ccc31)-c1csc(n1)CC(NC(=O)C1CC1C)C(=O)N1CCCC(N1)C(=O)OCC(C)(C)C2 ?
71.5

Next entry: Nc1ccn(C2OC(CO)C(O)C2(F)F)c(=O)n1 (stereo not given) + CCn1c(-c2cccnc2C(C)OC)c2c3cc(ccc31)N1CCOC(CC(NC(=O)C(C(C)C)N(C)C(=O)C3(F)CCN(C(=O)C#CC(C)(C)N(C)C)CC3)C(=O)N3CCCC(N3)C(=O)OCC(C)(C)C2)C1
4.47

And then C[C@@H](NC(=O)c1ncnc(N)c1Cl)c1ncc(C(=O)Nc2cc(C(F)(F)F)c(Cl)cn2)s1 + CCn1c(-c2cccnc2C(C)OC)c2c3cc(ccc31)N1CCOC(CC(NC(=O)C(C(C)C)N(C)C(=O)C3(F)CCN(C(=O)C#CC(C)(C)N(C)C)CC3)C(=O)N3CCCC(N3)C(=O)OCC(C)(C)C2)C1 , what is it?
90.3

Now the compound CC(=O)OC12COC1CC(O)C1(C)C(=O)C(O)C3=C(C)C(OC(=O)C(O)C(NC(=O)OC(C)(C)C)c4ccccc4)CC(O)(C(OC(=O)c4ccccc4)C21)C3(C)C (stereo not given) + CCn1c(-c2cccnc2C(C)OC)c2c3cc(ccc31)N1CCOC(CC(NC(=O)C(C(C)C)N(C)C(=O)C3(F)CCN(C(=O)C#CC(C)(C)N(C)C)CC3)C(=O)N3CCCC(N3)C(=O)OCC(C)(C)C2)C1
15.4

Record: CC(=O)OC12COC1CC(O)C1(C)C(=O)C(O)C3=C(C)C(OC(=O)C(O)C(NC(=O)OC(C)(C)C)c4ccccc4)CC(O)(C(OC(=O)c4ccccc4)C21)C3(C)C (stereo not given) + CCn1c(-c2cc(N3CCN(C)CC3)cnc2C(C)OC)c2c3cc(ccc31)-c1csc(n1)CC(NC(=O)C1CC1C)C(=O)N1CCCC(N1)C(=O)OCC(C)(C)C2
14.2

What about this compound? CCN1CCN(Cc2ccc(Nc3ncc(F)c(-c4cc(F)c5nc(C)n(C(C)C)c5c4)n3)nc2)CC1 + CCn1c(-c2cccnc2C(C)OC)c2c3cc(ccc31)N1CCOC(CC(NC(=O)C(C(C)C)N(C)C(=O)C3(F)CCN(C(=O)C#CC(C)(C)N(C)C)CC3)C(=O)N3CCCC(N3)C(=O)OCC(C)(C)C2)C1
18.7

Now this one: C=CC(=O)N1CCN(c2nc(OCC3CCCN3C)nc3c(F)c(-c4nc(N)cc(C)c4C(F)(F)F)c(Cl)cc23)C(C)C1 (stereo not given) + CCn1c(-c2cccnc2C(C)OC)c2c3cc(ccc31)N1CCOC(CC(NC(=O)C(C(C)C)N(C)C(=O)C3(F)CCN(C(=O)C#CC(C)(C)N(C)C)CC3)C(=O)N3CCCC(N3)C(=O)OCC(C)(C)C2)C1
116

Next record, please: C=CC(=O)Nc1cc(Nc2nccc(-c3cn(C)c4ccccc34)n2)c(OC)cc1N(C)CCN(C)C + CCn1c(-c2cccnc2C(C)OC)c2c3cc(ccc31)N1CCOC(CC(NC(=O)C(C(C)C)N(C)C(=O)C3(F)CCN(C(=O)C#CC(C)(C)N(C)C)CC3)C(=O)N3CCCC(N3)C(=O)OCC(C)(C)C2)C1
95.4

Input CCC(CC)c1cc(NC2CCC(N)C2)n2nccc2n1 (stereo not given) + CCn1c(-c2cccnc2C(C)OC)c2c3cc(ccc31)N1CCOC(CC(NC(=O)C(C(C)C)N(C)C(=O)C3(F)CCN(C(=O)C#CC(C)(C)N(C)C)CC3)C(=O)N3CCCC(N3)C(=O)OCC(C)(C)C2)C1
87.2

The record that follows has no viability, T/C shown yet.
Could you tell me which viability, T/C is on file for NC1c2ccccc2OC12CCN(c1cnc3c(N4CCCc5ncccc54)n[nH]c3n1)CC2 (stereo not given) + CCn1c(-c2cccnc2C(C)OC)c2c3cc(ccc31)N1CCOC(CC(NC(=O)C(C(C)C)N(C)C(=O)C3(F)CCN(C(=O)C#CC(C)(C)N(C)C)CC3)C(=O)N3CCCC(N3)C(=O)OCC(C)(C)C2)C1 ?
90.7
